Data provenance is patent US8338422B2.

Give measured IC50 for each item. Keep answers brief.
subject of test: AuroraB (h) (Homo sapiens)
Sequence (Q96GD4 whole entry): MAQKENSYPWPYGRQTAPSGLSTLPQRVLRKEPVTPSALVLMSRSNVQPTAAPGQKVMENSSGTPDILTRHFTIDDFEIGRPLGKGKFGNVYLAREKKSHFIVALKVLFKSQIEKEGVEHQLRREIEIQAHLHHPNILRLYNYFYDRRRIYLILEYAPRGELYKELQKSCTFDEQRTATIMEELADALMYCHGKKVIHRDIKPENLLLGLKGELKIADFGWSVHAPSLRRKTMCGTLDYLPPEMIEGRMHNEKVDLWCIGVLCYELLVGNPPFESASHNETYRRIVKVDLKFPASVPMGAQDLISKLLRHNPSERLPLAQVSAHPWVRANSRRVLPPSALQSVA
method summary: Aurora-B human kinase assay (SPA)
Assay type: biochemical
condition description: read-out: AuroraB pIC50 (converted)

These recorded examples may help you get a feel for the data.
compound="CN1CCCOc2cc(ccc2Cl)N/C=C2\\C(=O)Nc3ncnc(c32)N2CCN(CC2)C(=O)[C@H]1CO [Compound 181]" subject_of_test="AuroraB (h) (Homo sapiens)" reported_property=IC50 recorded_result="> 10 µM"
compound="CN1CCCC(=O)N(C)CCNc2ncnc3c2/C(=C/Nc2cccc(c2)C1)C(=O)N3 [Compound 82]" subject_of_test="AuroraB (h) (Homo sapiens)" reported_property=IC50 recorded_result="> 10 µM"
compound="O=C1Nc2ncnc3c2/C1=C/Nc1ccc(c(Cl)c1)OCCCCCCC(=O)N1CCN3CC1 [Compound 20]" subject_of_test="AuroraB (h) (Homo sapiens)" reported_property=IC50 recorded_result="> 10 µM"
compound="COc1cc2cc(c1OC)CN(C)CC(=O)N(C)CCCCNc1ncnc3c1/C(=C/N2)C(=O)N3 [Compound 152]" subject_of_test="AuroraB (h) (Homo sapiens)" reported_property=IC50 recorded_result="> 10 µM"
compound="COc1ccc2cc1OCCCCC(=O)N(C)CCNc1ncnc3c1/C(=C/N2)C(=O)N3 [Compound 45]" subject_of_test="AuroraB (h) (Homo sapiens)" reported_property=IC50 recorded_result="0.24 µM"
compound="CN1CC(=O)N(CCN2CCOCC2)CCC(=O)NCC#Cc2cccc3c2/C(=C/Nc2cccc(c2)S1(=O)=O)C(=O)N3 [Compound 5]" subject_of_test="AuroraB (h) (Homo sapiens)" reported_property=IC50 recorded_result="8.32 µM"
compound="CN1CCN(c2ccc3cc2CN(C)CCCCC(=O)N(C)CCNc2ncnc4c2/C(=C/N3)C(=O)N4)CC1 [Compound 92]" subject_of_test="AuroraB (h) (Homo sapiens)" reported_property=IC50 recorded_result="> 10 µM"
compound="CN1CCCNc2ncnc3c2/C(=C/Nc2cccc(c2)OCCCCCCC1=O)C(=O)N3 [Compound 69]" subject_of_test="AuroraB (h) (Homo sapiens)" reported_property=IC50 recorded_result="5.01 µM"

The record that follows has no IC50 shown yet.
Inquiry: What does the data say about its IC50? Entry: CN1CCCCCCC(=O)N(C)CCCNc2ncnc3c2/C(=C/Nc2cccc(c2)C1)C(=O)N3 [Compound 74]
Reply text: > 10 µM
